- test name: NCI Yeast Anticancer Drug Screen. Data for the sgs1 mgt1 strain (AID 161);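 note: 0% = growth of cultures given vehicle only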
- test context: S. cerevisiae sgs1 mgt1 strain, at 50.0 µM
- Description: Growth inhibition of yeast strains with defined genetic alterations is measured as a screen for potential anti-cancer activity. Selected strains with alterations in DNA damage repair or cell cycle control were exposed to compounds and growth inhibition was measured relative to vehicle treated controls. The strain used in this assay is sgs1 mgt1
Compounds without any hit were thinned out: in the full panel of roughly 79,000, 15% have a hit. The source made the active and inactive calls. Cut-off read from the data, not from the text of the source: active = growth inhibition above about 70%; inactive = the rest.
Allowed answers: active, inactive

CCOP(=O)(CCCOc1cc(Cl)c(Cl)cc1Cl)OCC = active
CC(C)Cc1ncc(CC(C)C)n(O)c1=O = active
CCCCCCCCCCCCCC(=O)N1CCOCC1 = active
CCCCCCC(C)c1ccccc1O (centres undefined) (tested in a mixture with another compound) = active
CCc1cccc(C(C)(C)C)c1NC(=S)N/C=C(\c1ccccc1)S(=O)Cc1ccccc1 (centres undefined) = inactive
C/C(=N/Nc1ccccc1)C(=O)O = active
COC1/C=C/OC2(C)Oc3c(C)c(OC(C)=O)c4c(c3C2=O)C(=O)C=C(NC(=O)/C(C)=C\C=C\C(C)C(O)C(C)C(O)C(C)C(OC(C)=O)C1C)C4=O (centres undefined) = inactive
O=C1C2=Cc3ccccc3CCN2c2ccccc21 = active
C/C(=N\NC(=S)NCc1ccccc1)c1nccnc1C = active
Cc1ccc(/C=C/C(=O)c2cc(CN(C)C)c(O)c(CN(C)C)c2)cc1 = inactive

Now for another entry.
For COC(=O)c1c(C)cccc1C(=O)c1ccc(C)cc1C , what call appears in the results of this test?
inactive

---

- test name: NCI Yeast Anticancer Drug Screen. Data for the mec2-1 strain (AID 157)
- test context: S. cerevisiae mec2-1 strain, at 5.0 µM (retest, dose inferred, filed as 0.5), active compounds read high
This is part of a sample that, as a whole, favours compounds with a hit. Of some 79,000 tested, about 15% had one in any assay.
test readout: growth inhibition (%)
Respond numerically; units are % and should not be typed.

CCC(=O)Sc1ccccc1C(=O)Nc1ccc(Cl)cc1 = 28
Nc1ccc(/C=C/c2ccccc2)cc1 = -9
CCC[CH2][Sn]([CH2]CCC)([S]/C(C#N)=N/N=C/c1ccc(N(C)C)cc1)[S]/C(C#N)=N/N=C/c1ccc(N(C)C)cc1 = 66
Nc1c(/C=C/c2cc3cc(C4=NCCN4)ccc3o2)[nH]c2cc(C3=NCCN3)ccc12 = 22

May I ask what growth inhibition has been recorded for O=C(C[n+]1ccc2ccccc2c1)c1ccc(-c2ccccc2)cc1 ?
-2

May I ask what growth inhibition has been recorded for CC(C)(C)CC(C)(C)c1ccc(OCCSC(=N)N)cc1 ?
99

May I ask what growth inhibition has been recorded for C=C1CC(Cn2ccc(=O)[nH]c2=O)(c2ccc(Cl)cc2)OC1=O (stereo not drawn) ?
-4

May I ask what growth inhibition has been recorded for CC(=O)OCC(=O)[C@@]1(O)[C@H](C)C[C@H]2[C@@H]3C=C(C)C4=Cc5c(cnn5-c5ccccc5)C[C@]4(C)[C@@]3(F)[C@@H](O)C[C@@]21C ?
0

May I ask what growth inhibition has been recorded for Oc1ccccc1/C=N/NC(=S)NC12CC3CC(CC(C3)C1)C2 ?
14

---

- test name: NCI Yeast Anticancer Drug Screen. Data for the sgs1 mgt1 strain (AID 161);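 note: 0% = growth of cultures given vehicle only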
- test context: S. cerevisiae sgs1 mgt1 strain, at 50.0 µM, active compounds read high
The panel holds about 79,000 compounds, 15% with a hit somewhere; the sample as a whole holds those more often.
# growth inhibition >= 70% gives Criterion met, anything below gives Criterion not met

C[C@@]12C(=O)OC(=O)[C@]1(C)[C@H]1CC[C@@H]2O1 = Criterion met

Could you tell me if the measured growth inhibition of COc1ccc(NC(=O)CCC(=O)CC(=O)c2ccncc2)cc1 reaches 70% or more?
Criterion not met

Could you tell me if the measured growth inhibition of S=C(NCCNC(=S)[S][Sn]([c]1ccccc1)([c]1ccccc1)[c]1ccccc1)[S][Sn]([c]1ccccc1)([c]1ccccc1)[c]1ccccc1 reaches 70% or more?
Criterion met

Could you tell me if the measured growth inhibition of O=C1c2ccccc2-c2ccccc2C(=O)C1(Br)Br reaches 70% or more?
Criterion met

Could you tell me if the measured growth inhibition of Cc1ccc(N=C=C(c2ccccc2)c2ccccc2)cc1 reaches 70% or more?
Criterion not met

Could you tell me if the measured growth inhibition of COc1cccc2c1C(=O)c1c(O)c(COC3CC(N)C(O)C(C)O3)cc(O)c1C2=O (stereo not given) reaches 70% or more?
Criterion met

Could you tell me if the measured growth inhibition of Cc1c(C2CC(=O)NC2=O)c2ccccc2n1C (stereo not given) reaches 70% or more?
Criterion not met

Could you tell me if the measured growth inhibition of Nc1nc(N)c2nc(CNc3ccc(C(=O)NC(CCC(=O)O)C(=O)O)cc3)cnc2n1 (stereo not given) reaches 70% or more?
Criterion not met

Could you tell me if the measured growth inhibition of CC(=O)OCC(=O)[C@@]1(O)CC[C@H]2[C@@H]3CCC4=CC(=O)C=C[C@]4(C)[C@@]3(F)[C@@H](O)C[C@@]21C reaches 70% or more?
Criterion not met

Could you tell me if the measured growth inhibition of CC(CCNCCC#N)CC(C)(C)C (stereo not given) reaches 70% or more?
Criterion met

---

- test name: NCI Yeast Anticancer Drug Screen. Data for the bub3 strain (AID 167)
- test context: S. cerevisiae bub3 mutant strain, at 50.0 µM
Compounds without any hit were thinned out: in the full panel of roughly 79,000, 15% have a hit. Calls of active or inactive are those of the source. Cut-off read from the data, not from the text of the source: active = growth inhibition above about 70%; inactive = the rest.
Allowed answers: active, inactive

CC(CO)[C@H]1OC(=O)C=C2[C@@]13O[C@@H]3[C@H]1OC(=O)[C@@]3(C)[C@H]4O[C@H]4C[C@@]2(C)[C@@H]13 (stereo partly specified) = active
CCCCN(CCC=C1c2ccccc2Oc2ccccc21)CCCC = inactive
O=C(/C=C/C=C/c1ccccc1)c1ccco1 = active
Oc1c(Cl)c2ccccc2c2ccccc12 = active

For N#C/C(=C\c1c(Cl)cccc1Cl)c1nc2ccccc2[nH]1 , what call appears in the results of this test?
active

For O=S1(=O)CC(Cl)(Cl)C1 , what call appears in the results of this test?
inactive

---

- test name: NCI Yeast Anticancer Drug Screen. Data for the mlh1 rad18 strain (AID 175)
- test context: S. cerevisiae mlh1 rad18 strain growth inhibition; at 50.0 µM (retest, dose inferred, filed as 5.0); active compounds read high
The panel holds about 79,000 compounds, 15% with a hit somewhere; the sample as a whole holds those more often.
# growth inhibition >= 40% gives satisfied, anything below gives not satisfied

A selection of reference data follows.
CCCCN(CCCC)CCC(O)(c1ccc(OC)c2ccccc12)C(O)(CCN(CCCC)CCCC)c1ccc(OC)c2ccccc12 (stereo not given) = satisfied
COc1ccc(CN=C(N)N)c2ccccc12 = not satisfied
O=C(Nc1ccccc1)c1cc(Cl)ccc1O = satisfied
CCN(CC)CCOC(=O)CCN1CC2CCC(CC2)C1 = not satisfied
CC(=O)N(c1ccccc1)c1nc2ccccc2s1 = not satisfied

Could you tell me if the measured growth inhibition of O=C1c2ccccc2C(=O)c2sccc21 reaches 40% or more?
satisfied

Could you tell me if the measured growth inhibition of Nc1nc(N)c2cc(S(=O)c3ccc4ccccc4c3)ccc2n1 (stereo not given) reaches 40% or more?
not satisfied

Could you tell me if the measured growth inhibition of COc1cc2c(c(OC)c1OC)-c1ccc(SC)c(=O)cc1[C@@H](NC1OC(COC(C)=O)C(OC(C)=O)C(OC(C)=O)C1OC(C)=O)CC2 (stereo not given in full) reaches 40% or more?
not satisfied

Could you tell me if the measured growth inhibition of CCOc1c(N=Nc2ccccc2OC)c(C)nn1C(N)=S reaches 40% or more?
not satisfied

Could you tell me if the measured growth inhibition of COC(=O)C([NH-])c1ccccc1.COC(=O)C([NH-])c1ccccc1.[Cl][Pt+2][Cl] (stereo not given) reaches 40% or more?
satisfied

Could you tell me if the measured growth inhibition of CN(C)c1cc2nc3ccccc3nc2cc1O reaches 40% or more?
satisfied

Could you tell me if the measured growth inhibition of CC(C)(C)CC(C)(C)c1ccc(OCCSC(=N)N)cc1 reaches 40% or more?
satisfied

Could you tell me if the measured growth inhibition of CCOC(=O)C(=CNC(=S)Nc1c(CC)cccc1C(C)(C)C)C(=O)OCC reaches 40% or more?
satisfied

Could you tell me if the measured growth inhibition of COC(=O)c1cc2c(c(C(=O)OC)c1O)C(=O)C=CC2=O reaches 40% or more?
satisfied

Could you tell me if the measured growth inhibition of C1=NCCN=Cc2ccccc2NCCNc2ccccc21 reaches 40% or more?
not satisfied

Could you tell me if the measured growth inhibition of CCCCNC(=S)NC1C2CC3CC(C2)CC1C3 (stereo not given) reaches 40% or more?
satisfied

Could you tell me if the measured growth inhibition of O=C(O)c1ccccc1Cc1ccc2c(c1)Cc1ccccc1-2 reaches 40% or more?
satisfied

Could you tell me if the measured growth inhibition of CC(C)(c1ccccc1)c1ccc2[nH]c(C(C)(C)c3ccccc3)c(CC(=O)O)c2c1 reaches 40% or more?
satisfied

Could you tell me if the measured growth inhibition of O=[N+]([O-])c1ccc(Oc2c(Cl)cccc2Cl)cc1 reaches 40% or more?
not satisfied

This collection of values is drawn from PubChem BioAssay (NCI).
